Cited source for all entries: patent US12691070B2

- Tested on: Hep G2 cells
- MEASUREMENT_NOTES: In vitro toxicity (CellTiter-Glo cell viability), Hep G2;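 further: percent of untreated cells luminescence signal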
- Format: cell-based
- CONDITIONS: cirRNA (SEQ ID NO: 1) LNPs; Hep G2 cells
READOUT_NAME: In vitro Viability HepG2 (%)
Express your answer in %, writing the number without its unit.

Solved cases below.
CCCCC/C=C\C/C=C\CCCCCCCCN(CCCCCC(=O)OCC(CCCCCCCC)CCCCCCCCCC)CCOC(=O)NCCN(C)C (stereo not shown) :: 85
CCCCC/C=C\C/C=C\CCCCCCCCN(CCCCCCCC(=O)OC(CCCCCCCC)CCCCCCCC)CCOC(=O)NCCN1CCCC1 :: 103
CCCCCCCCC(CCCCCC)C(=O)OCCCCCCCCN(CCCCCCCCOC(=O)C(CCCCCC)CCCCCCCC)CCOC(=O)NCc1ccc(NC(=O)OC(C)(C)C)cc1 (stereo not shown) :: 110
CCCCCCCCCCC(CCCCCCCC)COC(=O)CCCCCN(CCCCCC(=O)OCC(CCCCCCCC)CCCCCCCCCC)CCOC(=O)NCCN1CCCCC1 (stereo not shown) :: 88
CCCCCCCC/C=C\CCCCCCCCN(CCCCCCCCOC(=O)C(CCCCCC)CCCCCCCC)CCOC(=O)NCCN1CCCC1 (stereo not shown) :: 71

-- ask Can you share its In vitro Viability HepG2? I mean this compound: "CCCCC/C=C\C/C=C\CCCCCCCCN(CCCCCCCC/C=C\CCCCCCCC)CCOC(=O)NCCN(C)C"
-- reply 120

-- ask Can you handle CCCCCCCCCCC(CCCCCCCC)COC(=O)CCCCCN(CCCCCC(=O)OCC(CCCCCCCC)CCCCCCCCCC)CCOC(=O)NCCCn1ccnc1 (stereo not shown) next?
-- reply 102

---

Examples of compounds with documented In vivo Expression (Whole Body) follow.
- Test system: BALB/C mice
- MEASUREMENT_NOTES: In vivo expression, whole-body luminescence (IVIS)
- CONDITIONS: cirRNA (SEQ ID NO: 1) LNPs, BALB/C mice
Please respond with just the number, no unit label.

Solved cases below.
CCCCCCCCC(CCCCCCCC)OC(=O)CCCCCCCN(CCCCCCCCOC(=O)C(CCCCCC)CCCCCCCC)CCNC(=O)OCCN(C)C (stereo not shown) :: 3.67E+07
CCCCCCOC(=O)CCCCCCCCCCN(CCCCCCCCCCC(=O)OCCCCCC)CCOC(=O)NCCN1CCOCC1 :: 3.48E+06

-- ask Can you share its In vivo Expression (Whole Body)? I mean this compound: CCCCCCCCCCC(CCCCCCCC)COC(=O)CCCCCN(CCCCCC(=O)OCC(CCCCCCCC)CCCCCCCCCC)CCCOC(=O)NCCNC(C)C (stereo not shown)
-- reply 4.18E+06

-- ask Can you handle "CCCCC/C=C\C/C=C\CCCCCCCCN(CCCCCCCC(=O)OC(CCCCCCCC)CCCCCCCC)CCCOC(=O)NCCN1CCCCC1" next?
-- reply 1.19E+08

-- ask Can you handle CCCCCCCCCCC(CCCCCCCC)COC(=O)CCCCCN(CCCCCC(=O)OCC(CCCCCCCC)CCCCCCCCCC)CCOC(=O)NCCN1CCCC1 (stereo not shown) next?
-- reply 4.82E+08

-- ask Can you handle "CCCCCCCCCC(=O)OCCCCCCCCN(CCCCCCCCOC(=O)CCCCCCCCC)CCOC(=O)NCCN1CCCC1" next?
-- reply 6.62E+05

-- ask Can you handle CCCCCCCCC(CCCCCC)C(=O)OCCCCCCCCN(CCCCCCCCOC(=O)C(CCCCCC)CCCCCCCC)CCOC(=O)NCc1ccc(NC(=O)OC(C)(C)C)cc1 (stereo not shown) next?
-- reply 9.52E+04
